B1: tRNA (parent)
chain: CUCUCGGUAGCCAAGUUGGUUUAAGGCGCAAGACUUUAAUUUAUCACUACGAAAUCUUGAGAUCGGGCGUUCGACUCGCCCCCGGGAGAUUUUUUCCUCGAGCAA

# Variants of: B1
# Test Method Notes: nonsense suppression (GFP-seq) (ratio to wild type); higher = more function; SUP4oc tRNA, yeast GFP reporter sort-seq
This sample holds only a part of the variants without activity.
Measured Parameter: nonsense suppression

Find the recorded nonsense suppression belonging to C5U U20C and report it.
≤ 0.026

// repeat for G7U G28U U71G C72A G86U and report
≤ 0.026

Query A9C U20A next
0.183

And for U21G G69U ?
≤ 0.026

// next record C3A U22C G26U C80A
≤ 0.026
